- Target desc: FLT1 (human) (UniProt P17948)
- Sequence (P17948 whole entry, looked up): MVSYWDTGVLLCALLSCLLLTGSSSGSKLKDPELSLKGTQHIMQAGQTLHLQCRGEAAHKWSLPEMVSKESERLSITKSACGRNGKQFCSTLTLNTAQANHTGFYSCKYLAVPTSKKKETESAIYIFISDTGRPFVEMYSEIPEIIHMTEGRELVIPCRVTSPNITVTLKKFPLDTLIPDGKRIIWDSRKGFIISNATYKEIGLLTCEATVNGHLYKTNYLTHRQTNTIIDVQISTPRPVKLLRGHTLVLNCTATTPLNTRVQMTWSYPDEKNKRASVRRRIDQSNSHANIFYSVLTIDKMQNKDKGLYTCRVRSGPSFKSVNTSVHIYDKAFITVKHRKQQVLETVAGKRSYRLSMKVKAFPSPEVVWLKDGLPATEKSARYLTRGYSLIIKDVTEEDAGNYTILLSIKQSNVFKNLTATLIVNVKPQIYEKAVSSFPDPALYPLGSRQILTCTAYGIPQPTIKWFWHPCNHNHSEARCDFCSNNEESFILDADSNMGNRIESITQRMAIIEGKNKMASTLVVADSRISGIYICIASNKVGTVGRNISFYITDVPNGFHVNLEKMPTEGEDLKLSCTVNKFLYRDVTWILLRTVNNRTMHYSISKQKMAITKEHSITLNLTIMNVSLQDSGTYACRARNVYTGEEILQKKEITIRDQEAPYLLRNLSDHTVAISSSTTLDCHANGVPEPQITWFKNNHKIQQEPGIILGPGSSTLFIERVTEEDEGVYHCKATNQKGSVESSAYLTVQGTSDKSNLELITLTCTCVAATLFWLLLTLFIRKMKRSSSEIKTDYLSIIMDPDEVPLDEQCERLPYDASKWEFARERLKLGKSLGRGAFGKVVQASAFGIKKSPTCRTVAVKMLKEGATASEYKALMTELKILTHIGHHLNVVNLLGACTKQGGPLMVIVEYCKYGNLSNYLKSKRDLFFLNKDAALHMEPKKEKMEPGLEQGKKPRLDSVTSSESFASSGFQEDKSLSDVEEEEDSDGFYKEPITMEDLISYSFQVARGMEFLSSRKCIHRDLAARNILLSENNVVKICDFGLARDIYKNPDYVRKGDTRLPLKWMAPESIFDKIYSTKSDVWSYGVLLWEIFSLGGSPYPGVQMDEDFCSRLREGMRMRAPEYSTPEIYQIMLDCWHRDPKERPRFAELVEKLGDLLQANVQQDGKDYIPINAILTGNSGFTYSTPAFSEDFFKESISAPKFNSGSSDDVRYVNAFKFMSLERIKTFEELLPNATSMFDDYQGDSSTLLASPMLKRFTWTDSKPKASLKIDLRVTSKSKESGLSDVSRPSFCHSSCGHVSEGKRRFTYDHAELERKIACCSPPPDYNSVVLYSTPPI
- Run description: radiometric filter-binding kinase assay
- Assay setup: compound 1.0 µM
Property label: residual activity (%)
Provide the reading as a plain figure in %.

Entry O=C(NCCCNc1nc(Nc2cccc(CN3CCOCC3)c2)ncc1C1CC1)C1CCC1 , residual activity reported as 74

Entry NS(=O)(=O)OC[C@@H]1C[C@@H](n2ccc3c(N[C@H]4CCc5ccccc54)ncnc32)C[C@@H]1O , residual activity reported as 89

Entry CCn1c(-c2nonc2N)nc2cncc(CNC3CCNCC3)c21 , residual activity reported as 105

Entry C[C@H]1CCCC(=O)CCC/C=C/c2cc(O)cc(O)c2C(=O)O1 , residual activity reported as 95

Entry COc1ccc(-n2ncc3cnc(Nc4cc(OC)c(OC)c(OCCCN5CCN(C)CC5)c4)nc32)cc1 , residual activity reported as 2

====

Would you kindly list residual activity for each of these compounds?
- Target desc: IRAK4 (human)
- Run description: radiometric filter-binding kinase assay
- Assay setup: compound 10.0 µM
Provide the reading as a plain figure in %.

Entry O=C(O)c1ccc(-c2c[nH]c3ncc(-c4ccccc4)cc23)cc1C1CCCC1 , residual activity reported as 12

Entry NC(=O)c1cc(-c2ccnc(NC3CCCCC3)c2)nc(N2CCNCC2)c1 , residual activity reported as 92

Entry CCOC(=O)c1ccc(N2NC(=O)/C(=C/c3ccc([N+](=O)[O-])o3)C2=O)cc1 , residual activity reported as 112

Entry CCCCCc1ccc(/C=C/[C@H](O)[C@@H](CO)NC)cc1 , residual activity reported as 67

Entry COc1cc(C(=O)N2CCOCC2)c(F)cc1Nc1ncc(C(F)(F)F)c(NC2CC2)n1 , residual activity reported as 93

Entry COc1cc2ncn(-c3cc(OCc4ccccc4S(C)(=O)=O)c(C#N)s3)c2cc1OC , residual activity reported as 6

Entry O=C(NOCC(O)CO)c1ccc(F)c(F)c1Nc1ccc(I)cc1Cl (stereo not given) , residual activity reported as 91

Entry CCNc1nc(Nc2cc(F)c(C(=O)N3CCOCC3)cc2OC)ncc1C(F)(F)F , residual activity reported as 83

Entry Cc1ccc(=O)n(-c2ccccc2)c1 , residual activity reported as 95

Entry Cc1nc(-c2ccc(OCC(C)C)c(C#N)c2)sc1C(=O)O , residual activity reported as 98

====

- Target desc: MAP3K11 (human)
- Run description: radiometric filter-binding kinase assay
- Assay setup: compound 0.01 µM
Property label: residual activity (%)
Provide the reading as a plain figure in %.

Entry O=C(Nc1nc2cc(C(F)(F)F)cc(NC3CC3)n2n1)c1cccnc1 , residual activity reported as 88

Entry COc1ccc(N(C(=O)Nc2c(C)cccc2C)c2cc(Nc3ccc(N4CCN(C)CC4)cc3)ncn2)c(OC)c1 , residual activity reported as 105

Entry CNc1nc(-c2ccc3c(N)n[nH]c3c2)cc(N2C[C@@H](C(=O)NC3CCCCC3)CC[C@H]2C)n1 , residual activity reported as 100

Entry CNC(=O)C1[C@H]2O[C@@](C)([C@@H]1N)n1c3ccccc3c3c4c(c5c6ccccc6n2c5c31)C(=O)NC4 (some centres undefined) , residual activity reported as 17

====

- Target desc: EPHA4 (human)
- Run description: radiometric filter-binding kinase assay
- Assay setup: compound 10.0 µM
Would you kindly list residual activity for each of these compounds?
Provide the reading as a plain figure in %.

Entry O=c1c(O)c(-c2ccc(O)c(O)c2)oc2cc(O)c(O)c(O)c12 , residual activity reported as 74

Entry CCOC(=O)c1ccc(N2NC(=O)/C(=C/c3ccc([N+](=O)[O-])o3)C2=O)cc1 , residual activity reported as 75

Entry c1ccc2c(-c3cnn4cc(-c5ccc(N6CCNCC6)cc5)cnc34)ccnc2c1 , residual activity reported as 57

Entry Oc1ccc(/C=C/c2cc(O)cc(O)c2)cc1 , residual activity reported as 107

Entry COc1cc2ncn(-c3cc(OCc4ccccc4S(C)(=O)=O)c(C#N)s3)c2cc1OC , residual activity reported as 45

Entry NC(=O)c1c(NC(=O)C2CC2)sc2c1CCCC2 , residual activity reported as 53
